molecular target: UniProtKB P27338; assay: Inhibition of recombinant human MAOB expressed in insect cell microsomes using kynuramine as substrate preincubated with substrate for 30 mins followed by enzyme addition and measured after 20 mins by fluorescence spectrophotometry
Quick reference: IC50 of the listed items.

c1cc(-c2noc(C3CC3)n2)ccc1C1=NCCN1    4.28 µM

Incoming: Write down IC50 measured for item "FC(F)(F)c1cnc2c(c1)Oc1ccccc1C1=NCCN12"
Outgoing: > 100 µM

Incoming: Write down IC50 measured for item "Cn1ncc2c(c1=O)Oc1ccccc1C1=NCCN12"
Outgoing: > 100 µM

---

Quick reference: IC50 of the listed items.
target: Amine oxidase [flavin-containing] B (Homo sapiens, UniProt P27338); test: Inhibition of recombinant human MAOB expressed in insect cell microsomes using kynuramine as substrate preincubated with substrate for 30 mins followed by enzyme addition and measured after 20 mins by fluorescence spectrophotometry
Sequence (P27338 whole entry): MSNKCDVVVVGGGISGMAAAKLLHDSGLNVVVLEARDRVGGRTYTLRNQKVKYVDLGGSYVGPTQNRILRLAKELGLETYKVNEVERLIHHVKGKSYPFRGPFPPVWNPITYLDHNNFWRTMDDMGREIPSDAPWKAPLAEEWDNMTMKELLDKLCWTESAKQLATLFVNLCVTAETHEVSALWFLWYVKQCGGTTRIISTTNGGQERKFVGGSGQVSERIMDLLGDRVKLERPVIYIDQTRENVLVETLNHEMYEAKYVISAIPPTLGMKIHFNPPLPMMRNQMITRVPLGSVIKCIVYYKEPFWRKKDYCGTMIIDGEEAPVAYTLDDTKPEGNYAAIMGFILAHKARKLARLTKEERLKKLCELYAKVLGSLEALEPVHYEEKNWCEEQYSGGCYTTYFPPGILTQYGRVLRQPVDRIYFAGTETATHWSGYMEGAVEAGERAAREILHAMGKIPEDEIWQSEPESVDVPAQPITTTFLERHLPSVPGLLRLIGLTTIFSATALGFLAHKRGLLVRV

CCOc1ccc(-c2n[nH]cc2C2=NCCN2)cc1    > 100 µM
N#Cc1cccc(C2=NCCN2)c1    1.87 µM
c1ccc2c(c1)Oc1nccnc1N1CCN=C21    > 100 µM

Kindly review the next compound as well.
Incoming: Write down IC50 measured for item "COc1ccc(C2=NCCN2)cc1Cn1ccnc1C"
Outgoing: > 100 µM
